System: Thyroperoxidase (TPO), gene 54314
Experiment: CCTE_Simmons_AUR_rTPO: CCTE's Amplex UltraRed Assay for Thyroperoxidase (TPO) Inhibition, Simmons Lab (AID 2283662)
Activity calls are given as the source filed them. Rule for the calls: active = hit-call score of the fitted dose curve at least 0.9, where 1 is the maximum; inconclusive = response in the unintended direction; inactive = score below 0.9.
Returns: one label drawn from 1 = active, -1 = inactive

Previously resolved entries follow.
O=c1cc(-c2ccccc2)oc2cc(O)cc(O)c12: 1
c1ccc2c(c1)c1cccc3ccc4cccc2c4c31: -1
c1ccc2[nH]ccc2c1: 1
Cc1ccc(C(C)C)cc1O: -1
CSc1nc(NC2CC2)nc(NC(C)(C)C)n1: -1

Outcome? Cc1ccc(O)c(C(C)(C)C)c1
1

Outcome? CCCCc1ccc(N)cc1
1

Outcome? CC(C)c1cccc(O)c1
1

Outcome? COc1cc(C(C)(C)C)c(O)c(C(C)(C)C)c1
1

Outcome? O=C(Cl)c1cccc(C(=O)Cl)c1
1

Outcome? COc1ccc(O)cc1
1

Outcome? CN(C)c1ccc(O)c2c1C[C@H]1C[C@H]3[C@H](N(C)C)C(=O)C(C(N)=O)=C(O)[C@@]3(O)C(=O)C1=C2O
1

---

Read-out: Tumor necrosis factor (Homo sapiens)
Experiment: BSK_LPS_TNFa: BioMAP Diversity Plus: LPS Assay for Tumour Necrosis Factor alpha (TNFa) Biomarker Activity (AID 2283085);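 for AC50: TNFa protein level quantified by ELISA in the co-culture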
Conditions: primary human HUVEC with PBMC; actives raise or lower the signal
Calls of active or inactive are those of the source. Rule for the calls: active = hit-call score of the fitted dose curve at least 0.9, where 1 is the maximum; inactive = score below 0.9.
Assay Metric: AC50

Cc1ccc2n[nH]nc2c1: inactive
c1ccc2sc(SN(C3CCCCC3)C3CCCCC3)nc2c1: 5.77 µM (active)
O=C(O)c1cn(C2CC2)c2cc(N3CCNCC3)c(F)cc2c1=O: inactive
CC(C)Oc1ccccc1O: inactive
Cc1ccc(O)c(C(C)(C)C)c1: 34.8 µM (active)
CC(=O)[C@H]1CC[C@H]2[C@@H]3CC=C4C[C@@H](O)CC[C@]4(C)[C@H]3CC[C@]12C: inactive

Identify AC50 associated with the molecule O=C(O)C[C@H](O)C[C@H](O)/C=C/c1c(C2CC2)nc2ccccc2c1-c1ccc(F)cc1
3.17 µM (active)

---

Read-out: E-selectin (Homo sapiens)
Experiment: BSK_3C_Eselectin: BioMAP Diversity Plus: 3C Assay for Eselectin Biomarker Activity (AID 2283015);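 note: cell surface E-selectin protein quantified by ELISA 24 h after dosing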
Conditions: primary human endothelial cells (HUVEC); actives raise or lower the signal
Active and inactive are the calls of the source. How the source made its calls: active means hit-call score of the fitted dose curve at least 0.9, where 1 is the maximum; inactive means score below 0.9.
Returns: one label drawn from YES for active, NO for inactive

Outcome? CCCCC(CC)COC(=O)/C=C\C(=O)OCC(CC)CCCC (stereo unspecified)
NO

Outcome? Nc1cc([N+](=O)[O-])ccc1Cl
NO

Outcome? CC(=O)O[C@]1(C(C)=O)CC[C@H]2[C@@H]3C[C@H](C)C4=CC(=O)CC[C@]4(C)[C@H]3CC[C@@]21C
NO

---

Assay: ATG_Sox_CIS: Attagene CIS-FACTORIAL HepG2 Assay for human SRY-box transcription factor (SOX) (AID 2282960)
Conditions: HepG2 Attagene cis-factorial SOX reporter, mRNA; actives raise or lower the signal
Active and inactive are the calls of the source. How the source made its calls: active means hit-call score of the fitted dose curve at least 0.9, where 1 is the maximum; inactive means score below 0.9.
Assay Metric: outcome

Here are 5 molecules together with their reported answers.
Cc1ccc2n[nH]nc2c1: inactive
CCCCCCCCC=O: inactive
C=C(C)[C@@H]1CCC2=CC(=O)C[C@@H](C)[C@]2(C)C1: inactive
CCCCCCCCCCN: inactive
O=C(O)c1ccc([N+](=O)[O-])cc1: inactive

Identify outcome associated with the molecule CC(CC(C)(C)C)CC(C)(C)CC(C)(C)C (stereo not given)
inactive

Identify outcome associated with the molecule CC1(C)[C@H]2CC[C@]1(C)[C@H](O)C2
inactive

Identify outcome associated with the molecule CC(C)c1cccc(O)c1
inactive
